// data source = ChEMBL document CHEMBL3751796

tested on: Hepatitis C virus; experiment: Antiviral activity against HCV genotype 1b Con1 infected in human Huh7.5 cells expressing GFP-fused NS5A measured 72 hrs post infection by hoechst 33342 staining based confocal microscopy; format: functional, organism-based, Hepacivirus hominis; settings: isolate Con1, Huh-7, 72 h
Value Kind: EC50 (nM)
Please give a number only; it is taken to be in nM.

q: API: value(readout=EC50, system=Hepatitis C virus) for record COc1cc(C(C(=O)NC2CCCCC2)N(C(=O)Cc2c[nH]c3ccccc23)c2ccc(C(C)C)cc2)cc(OC)c1OC (stereo unspecified)
a: 730

====

test: Cytotoxicity against mock-infected human Huh7.5 cells assessed as reduction in cell viability incubated for 5 hrs by MTT assay; type: cell-based, Huh-7; conditions: mock-infected Huh7.5 cells
Field 'label' (enum: yes (1) / no (0)). Set to yes (1) when CC50 at 5 h is strictly under 40 µM; else no (0).

Study these solved cases before continuing.
[
  {
    "Compound": "COc1ccc(CCC(=O)N(c2ccc(C(C)C)cc2)C(C(=O)NC2CCCCC2)c2ccc(Cl)cc2)cc1 (stereo not drawn)",
    "Group": "no (0)"
  },
  {
    "Compound": "COc1ccc(CCC(=O)N(c2ccc(OC)c(OC)c2)C(C(=O)NC2CCCCC2)c2ccc(Cl)cc2)cc1 (stereo not drawn)",
    "Group": "no (0)"
  },
  {
    "Compound": "COc1ccc(C(C(=O)NC2CCCCC2)N(C(=O)Cc2c[nH]c3ccccc23)c2ccccc2)cc1OC (stereo not drawn)",
    "Group": "yes (1)"
  },
  {
    "Compound": "COc1ccc(N(C(=O)Cc2c[nH]c3ccccc23)C(C(=O)NC2CCCCC2)c2ccc([N+](=O)[O-])cc2)cc1 (stereo not drawn)",
    "Group": "yes (1)"
  },
  {
    "Compound": "COc1cc(C(C(=O)NC2CCCCC2)N(C(=O)Cc2c[nH]c3ccccc23)c2ccccc2)cc(OC)c1OC (stereo not drawn)",
    "Group": "yes (1)"
  }
]

q: I wonder whether CC(=O)N(c1ccc(C(C)C)cc1)C(C(=O)NC1CCCCC1)c1ccc(Cl)cc1 (stereo not drawn) has CC50 at 5 h below 40 µM. Can you tell?
a: no (0)

q: is_below(CC50 at 5 h, 40 µM) for O=C(NC1CCCCC1)C(c1ccccc1)N(C(=O)Cc1c[nH]c2ccccc12)c1ccccc1 (stereo not drawn) ?
a: yes (1)

q: Please determine if COc1cc(C(C(=O)NC2CCCCC2)N(C(=O)Cc2c[nH]c3ccccc23)c2ccc(C(C)C)cc2)cc(OC)c1OC (stereo not drawn) is below 40 µM in terms of CC50 at 5 h.
a: no (0)
